- assay.notes: Therapeutic index, ratio of TD50 for po dosed rat to ED50 for protection against subcutaneous metrazole-induced seizure in po dosed rat
- Assay type: organism-based
- test.settings: in vivo, read-out: Ratio TD50/ED50
Would you kindly list selectivity ratio for each of these compounds?
One number for each entry.

>>> df
                     compound_string  value_measured
0  O=C1NC(=O)C(c2ccccc2)(c2ccccc2)N1               2

Prompt line: Read the entry O=C1CN=C(c2ccccc2Cl)c2cc([N+](=O)[O-])ccc2N1 and write its reported selectivity ratio.
Response line: 3.9

* * *

- assay.notes: Therapeutic index, ratio of TD50 for ip dosed mouse to ED50 for protection against subcutaneous metrazole-induced seizure in ip dosed mouse
- Assay type: organism-based
- test.settings: in vivo, read-out: Ratio TD50/ED50
outcome.measure: selectivity ratio

                            compound_string  value_measured
0         O=C1NC(=O)C(c2ccccc2)(c2ccccc2)N1          < 0.82
1  C#Cc1ccc2c(c1)C(c1ccccc1Cl)=NCc1nnc(C)n1-2             2.8
2  C#Cc1ccc2c(c1)C(c1ccccn1)=NCc1c(C(=O)OCC)ncn1-2          > 30.2
3  O=C1CN=C(c2ccccc2Cl)c2cc([N+](=O)[O-])ccc2N1              13

Prompt line: Read the entry C#Cc1ccc2c(c1)C(c1ccccc1F)=NCc1c(C(=O)OCC)ncn1-2 and write its reported selectivity ratio.
Response line: > 44
